# assayed_target: Growth hormone secretagogue receptor type 1 (Homo sapiens, UniProt Q92847)
# Sequence (Q92847 whole entry): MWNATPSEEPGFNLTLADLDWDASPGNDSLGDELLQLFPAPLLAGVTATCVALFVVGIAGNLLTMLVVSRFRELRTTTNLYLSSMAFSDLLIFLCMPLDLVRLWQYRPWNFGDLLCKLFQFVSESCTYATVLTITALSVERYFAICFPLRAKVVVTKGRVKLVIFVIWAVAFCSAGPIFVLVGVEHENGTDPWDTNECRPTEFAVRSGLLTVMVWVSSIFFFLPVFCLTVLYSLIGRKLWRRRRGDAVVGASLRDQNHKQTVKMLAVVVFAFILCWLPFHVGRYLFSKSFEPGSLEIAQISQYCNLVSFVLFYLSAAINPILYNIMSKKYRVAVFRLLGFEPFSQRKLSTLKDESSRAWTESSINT
# assay: Agonist activity at human GHS receptor expressed in H4 cells by FLIPR assay
measurement_kind: EC50 (nM)
Quick reminder: number only, in nM, skip the unit.

- compound_smiles: "CC(C)(N)C(=O)N[C@H](COCc1ccccc1)c1nnnn1CCCC(=O)NCCCCO"
  unit_tag: "nM"
  EC50: 1.8
- compound_smiles: "CC(C)(N)C(=O)N[C@H](COCc1ccccc1)c1nnnn1CCCC(=O)NCc1ccccc1"
  unit_tag: "nM"
  EC50: 32
- compound_smiles: "CC(C)(N)C(=O)N[C@H](COCc1ccccc1)c1nnnn1CCCC(=O)NCCN1CCNC1=O"
  unit_tag: "nM"
  EC50: 3.3

[in] Requested read-out: EC50. Entry: "CC(C)(N)C(=O)N[C@H](COCc1ccccc1)c1nnnn1CCCC(=O)NCCC(=O)O"
[out] 204
